- subject_of_test: T1, water-soluble hFcRn (human, UniProt P55899 24-297; P61769 21-119, limits assumed)
- T1 construct: also called shFcRn; human FcRn
- assay_remarks: SPR (Proteon XPR36, GLC chip), shFcRn immobilised, antibody as analyte, pH 6.0, 1:1 Langmuir, mean of six runs
- Protocol: In kinetic analysis, a 1:1 Langmuir binding model was used, the analysis was repeated six times at each of pH 6.0 and pH 7.4, and the mean KD value was calculated. […], the chip was activated under the conditions of EDAC/NHS 0.5×, 30 μL/min and 300 sec. […] The kinetic analysis of each sample was repeated six times, and then the mean antigen binding affinity (KD) was measured.
readout_label: kon (M⁻¹ s⁻¹)
Quick reminder: number only, in M⁻¹ s⁻¹, skip the unit.

So what does the record say about kon for HL161D antibody (antibody, human IgG1, V domains shown, the VL entry runs a few residues into the constant region) VH: QLQLQESGPGLVKPSETLSLTCTVSGGSISSSSYYWGWIRQPPGKGLEWIGNIYYSGSTYYNPSLMSRVTISVDTSKNQFSLKLSSVTAADTAVYYCARQLSYNWNDRLFDYWGQGTLVTVSS VL: SYELTQPLSVSVALGQTARITCGGNNIGSKNVHWYQQKPGQAPVLVIYRDSNRPSGIPERFSGSNSGNTATLTISRAQAGDEADYYCQVWDSSTVVFGGGTKLTVLGQPKAAPSVTL ?
970000

So what does the record say about kon for HL161A antibody (antibody, human IgG1, V domains shown) VH: EVQLLESGGGLVQPGGSLRLSCAASEFTFGSCVMTWVRQAPGKGLEWVSVISGSGGSTYYADSVKGRFTISRDNSKNTLYLQMNSLRAEDTAVYYCAKTPWWLRSPFFDYWGQGTLVTVSS VL: SYVLTQPPSVSVAPGQTARITCGGNNIGSTSVHWYQQKPGQAPVLVVHDDSDRPSGIPERFSGSNSGNTATLTISRVEAGDEADYYCQVRDSSSDHVIFGGGTKLTVLGQPKAAPSVTL ?
1.81e+06

So what does the record say about kon for HL161B antibody (antibody, V domains shown, the VL entry runs a few residues into the constant region) VH: QLLLQESGPGLVKPSETLSLTCTVSGGSLSSSFSYWVWIRQPPGKGLEWIGTIYYSGNTYYNPSLKSRLTISVDTSKNHFSLNLSSVTAADTAVYYCARRAGILTGYLDSWGQGTLVTVSS VL: SYVLTQSPSVSVAPGQTARITCGGNNIGSKSVHWYQQKPGQAPVLVVYDDSDRPSGIPERFSASNSGNTATLTISRVEAGDEADYYCQVWDSSSDHVVFGGGTKLTVLGQPKAAPSVTL ?
912000

All values here come from patent US20240092913A1.
